assay procedure: caspase activation in A1-primed MEFs – cell-based, CaspaseGlo luminescence, A1 inhibitor project, primary screen (AID 2241);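 further: effector caspase 3 and 7 activity cleaving a DEVD luciferin substrate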
applied conditions: MEF A1-2A-BIM cells, caspase-Glo luminescence, 3 h; active compounds read high; percent of clofoctol signal, DMSO as zero; concentration not given here
Hit rate of the full screen: of about 21,000 compounds, about 110 (0.52%) were called active. The sample as a whole holds a higher share of actives than the screen did.
recorded endpoint: caspase activation (%)
Give your result in % as a bare value.

Sample "CC(=O)Nc1ccc(N=Cc2ccc(N3CCOCC3)cc2)cc1" — what was its caspase activation?
-0.682

# repeat for S=C(Nc1cccc(Cl)c1)NC1CCSc2ccc(Cl)cc21 (configuration not stated)
1.82

# repeat for "C=C1C(=O)O[C@@H]2[C@H]3C(CO)=CC(=O)C3=C(C)C[C@H](OC(=O)Cc3ccc(O)cc3)[C@@H]12"
-0.373

# repeat for "CCN(CC)C(=S)SCc1nc(N)nc(Nc2ccccc2)n1"
0.133

# repeat for "CCOC(=O)c1cnc2cc(C(F)(F)F)ccc2c1N1CCCCCC1"
0.00836

# repeat for "C[C@@H]1CN([C@@H](C)CO)C(=O)c2cc(NS(=O)(=O)c3ccccc3)ccc2O[C@H]1CN(C)CC1CC1"
-0.166

# repeat for "Cc1ccc(-n2c(C)nc3sc4c(c3c2=O)CCC4)cc1"
0.54

# repeat for "C=CCn1c2ccccc2c2nnc(SCCCC(=O)c3ccc(F)cc3)nc21"
-0.988

# repeat for "O=C(NCc1ccccc1Cl)C1=CSCCO1"
-0.087

# repeat for "CCCOC(=O)c1cc2ccccc2oc1=O"
-1.82

# repeat for "Cc1ccc2c(c1)N(CCCC(=O)N1CCCCC1)C(=O)CO2"
-0.335

# repeat for "O=c1oc2ccccc2cc1-c1ccc(Cl)cc1"
-4.58

# repeat for "O=C(Nc1ccccc1)Nc1ccc(C2SCCS2)cc1"
-6.29

# repeat for "CCSC1=C(C#N)C(=O)NCS1"
0.116

# repeat for "COc1ccc(OC)c2c(C)cc(=O)[nH]c12"
0.675

# repeat for "Cc1noc(C)c1NC(=O)N(C)C[C@H]1Oc2ccc(NS(=O)(=O)c3ccc(F)cc3)cc2C(=O)N([C@@H](C)CO)C[C@H]1C"
0.124

# repeat for CC1CCC(C(C)C)C(=O)/C1=C\c1ccc(NC(=O)CCC(=O)O)cc1 (configuration not stated)
-1.52

# repeat for "COc1ccc(CN(C)C[C@@H]2Oc3ccc(NC(=O)NC(C)C)cc3C(=O)N([C@@H](C)CO)C[C@H]2C)cc1"
-0.804

# repeat for "CC1(C)CC(=O)C=C(Nc2ccccc2)C1"
0.527

# repeat for "COc1ccc(S(=O)(=O)N(C)C[C@H]2Oc3ccc(NC(=O)Nc4c(C)noc4C)cc3C(=O)N([C@H](C)CO)C[C@H]2C)cc1"
-0.141

# repeat for "Cn1c(C(=O)NC2CCCC2)cc2oc3ccccc3c21"
-1.2

# repeat for "Cc1ccc(Nc2nc(C)cc(C)c2C(N)=O)cc1"
0.407

###

assay procedure: caspase activation in A1-primed MEFs – cell-based, CaspaseGlo luminescence, A1 inhibitor project, primary screen (AID 2241);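 further: effector caspase 3 and 7 activity cleaving a DEVD luciferin substrate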
applied conditions: MEF A1-2A-BIM cells, caspase-Glo luminescence, 3 h; active compounds read high; percent of clofoctol signal, DMSO as zero; concentration not given here
Screen size: about 21,000 compounds; about 110 (0.52%) were called active. This is one part of a sample in which actives are shown more often than they occur.
recorded endpoint: caspase activation (%)
Give your result in % as a bare value.

Sample "c1ccc(CSc2ccc(-c3ccncc3)nn2)cc1" — what was its caspase activation?
0.0365

# repeat for "Cc1cc(-c2cccs2)c2c(N)c(C(=O)c3ccccc3)sc2n1"
1.1

# repeat for "C[C@@H]1CN([C@H](C)CO)C(=O)c2cc(NC(=O)Cc3ccccc3)ccc2O[C@H]1CN(C)S(=O)(=O)c1cn(C)cn1"
0.269

# repeat for "COc1ccc(NC(=O)N(C)C[C@H]2Oc3ccc(NS(=O)(=O)c4cccs4)cc3C(=O)N([C@@H](C)CO)C[C@H]2C)cc1"
0.747

# repeat for "CCN1C(=O)c2ccccc2Sc2ccc(NC(=O)N3CCc4ccccc43)cc21"
-0.754
